Experimental target: F508delCFTR (Homo sapiens, UniProt P13569, DEL508-508)
Construct: expressed in transfected cells; host or cells: CFBE41o- human lung derived epithelial cells (CFBE41o-F508delCFTR-HRP), doxycycline-inducible
Sequence (P13569 with tags, fused parts or gaps DEL508-508): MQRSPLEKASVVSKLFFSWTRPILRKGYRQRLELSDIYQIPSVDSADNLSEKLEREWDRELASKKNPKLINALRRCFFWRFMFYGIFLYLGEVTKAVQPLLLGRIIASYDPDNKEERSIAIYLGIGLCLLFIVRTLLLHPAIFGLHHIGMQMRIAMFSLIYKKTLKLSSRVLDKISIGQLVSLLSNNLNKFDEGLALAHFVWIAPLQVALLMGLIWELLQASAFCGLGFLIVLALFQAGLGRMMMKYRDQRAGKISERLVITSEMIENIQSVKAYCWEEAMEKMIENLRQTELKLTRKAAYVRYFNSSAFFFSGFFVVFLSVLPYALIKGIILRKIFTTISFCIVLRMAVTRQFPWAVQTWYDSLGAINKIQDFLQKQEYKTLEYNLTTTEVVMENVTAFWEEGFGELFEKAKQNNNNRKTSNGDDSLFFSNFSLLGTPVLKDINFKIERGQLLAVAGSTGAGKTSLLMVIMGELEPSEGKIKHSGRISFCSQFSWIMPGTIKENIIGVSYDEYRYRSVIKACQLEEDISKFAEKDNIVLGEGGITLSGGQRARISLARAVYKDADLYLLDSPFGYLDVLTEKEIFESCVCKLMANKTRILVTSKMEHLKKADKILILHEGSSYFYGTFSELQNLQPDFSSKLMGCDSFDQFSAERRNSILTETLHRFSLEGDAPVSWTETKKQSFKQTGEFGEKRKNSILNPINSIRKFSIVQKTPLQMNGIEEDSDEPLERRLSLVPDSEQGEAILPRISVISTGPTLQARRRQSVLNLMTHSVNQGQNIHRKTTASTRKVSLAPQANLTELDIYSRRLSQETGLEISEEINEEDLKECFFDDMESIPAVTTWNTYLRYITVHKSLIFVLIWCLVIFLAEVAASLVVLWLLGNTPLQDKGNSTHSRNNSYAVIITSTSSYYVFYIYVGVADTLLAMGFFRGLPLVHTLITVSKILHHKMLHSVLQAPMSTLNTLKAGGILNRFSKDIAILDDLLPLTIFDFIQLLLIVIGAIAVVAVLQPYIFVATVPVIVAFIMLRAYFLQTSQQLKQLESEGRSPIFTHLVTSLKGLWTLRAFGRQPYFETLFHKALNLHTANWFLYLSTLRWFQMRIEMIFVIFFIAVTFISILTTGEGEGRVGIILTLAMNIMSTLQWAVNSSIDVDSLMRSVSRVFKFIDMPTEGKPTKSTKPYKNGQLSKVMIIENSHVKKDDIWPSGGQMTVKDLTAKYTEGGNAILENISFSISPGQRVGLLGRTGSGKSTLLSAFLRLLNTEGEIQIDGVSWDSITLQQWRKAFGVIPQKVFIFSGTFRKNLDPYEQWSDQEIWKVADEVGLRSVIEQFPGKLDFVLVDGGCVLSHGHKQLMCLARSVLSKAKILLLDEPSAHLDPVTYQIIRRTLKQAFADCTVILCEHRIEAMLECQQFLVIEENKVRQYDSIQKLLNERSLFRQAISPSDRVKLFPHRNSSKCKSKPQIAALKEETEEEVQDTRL
Assay summary: Cell Surface Expression-Horse Radish Peroxidase (CSE-HRP) Assay
Format: cell-based
Applied conditions: with co-corrector; maximum at any tested concentration
Quantity kind: Maximum % activity (with co-corrector)

Check out these entries, answers already filled in.
O=C(NS(=O)(=O)Cc1ccccc1)C1(c2ccc(F)cc2)CC1; + (<150)
COC(=O)c1ccc(S(=O)(=O)NC(=O)C2(c3ccc(Cl)cc3Cl)CC2)o1; + (<150)
COC[C@H](C)Oc1ccc(C)cc1C1(C(=O)NS(=O)(=O)c2cccc3ncccc23)CC1; +++ (≥350)
COc1cc(OC(C)C)c(C2(C(=O)NS(=O)(=O)c3cccc4nc(C)ccc34)CC2)cn1; +++ (≥350)
Cc1ccc(OC(C)C)c(C2(C(=O)NS(=O)(=O)c3cccc4nc(C)ccc34)CC2)c1; +++ (≥350)

Give Maximum % activity (with co-corrector) (F508delCFTR (Homo sapiens, UniProt P13569, DEL508-508)) of the following compound: `CCOc1ccc2nc(S(=O)(=O)NC(=O)C3(c4cccc(Cl)c4)CC3)sc2c1`
+ (<150)

What do you get for `COc1ccc(C(C)(C)C)cc1C1(C(=O)NS(=O)(=O)c2cccc3nc(C)ccc23)CC1` ?
+++ (≥350)

====

// reported pEC50 for each item listed
Experimental target: F508delCFTR (Homo sapiens, UniProt P13569, DEL508-508)
Construct: expressed in transfected cells; host or cells: CFBE41o- human lung derived epithelial cells (CFBE41o-F508delCFTR-HRP), doxycycline-inducible
Assay summary: Cell Surface Expression-Horse Radish Peroxidase (CSE-HRP) Assay;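 for EC50 (with co-corrector): co-corrector chromenyl benzoic acid corrector at 2 or 3 µM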
Type: cell-based
Applied conditions: test compound with co-corrector; read-out: EC50 (with co-corrector)
pEC50: −log10 of the molar value.

Check out these entries, answers already filled in.
Cc1ccc2c(S(=O)(=O)NC(=O)C3(c4cc(N5CCCC5)cnc4OCC(C)C)CC3)cccc2n1; > 5.52
CCc1cnc(OCC(C)C)c(C2(C(=O)NS(=O)(=O)c3cccc4ncccc34)CC2)c1; > 5.52
Cc1cnc(OCC(C)C)c(C2(C(=O)NS(=O)(=O)c3cccc4ncccc34)CC2)c1; > 5.52

Form field: reported pEC50 of `CCc1cnc(N(C)C)c(C2(C(=O)NS(=O)(=O)c3cccc4ncccc34)CC2)c1`
< 5.00

====

Experimental target: F508delCFTR (Homo sapiens, UniProt P13569, DEL508-508)
Construct: expressed in transfected cells; host or cells: CFBE41o- human lung derived epithelial cells (CFBE41o-F508delCFTR-HRP), doxycycline-inducible
Assay summary: Cell Surface Expression-Horse Radish Peroxidase (CSE-HRP) Assay
Type: cell-based
Applied conditions: test compound alone, without co-corrector; read-out: EC50 (without co-corrector)
pEC50: −log10 of the molar value.
// reported pEC50 for each item listed

COc1ccc(C2CCC2)cc1C1(C(=O)NS(=O)(=O)c2cccc3ccccc23)CC1; > 5.52
O=C(NS(=O)(=O)c1ccc2c(c1)CCC2)C1(c2ccc(Cl)cc2Cl)CC1; < 5.00
CCCS(=O)(=O)NC(=O)C1(c2cccc(C)c2)CCOCC1; < 5.00
COc1ccc(C2CCC2)cc1C1(C(=O)NS(=O)(=O)c2cccc3ncccc23)CC1; > 5.52

Form field: reported pEC50 of `CCCS(=O)(=O)NC(=O)C1(c2ccc(Cl)cc2Cl)CC1`
< 5.00

What do you get for `O=C(NS(=O)(=O)c1ccc(Cl)cc1)C1(c2ccc(Cl)cc2Cl)CC1` ?
< 5.00

What do you get for `CCOc1ccc(C)cc1C1(C(=O)NS(=O)(=O)c2cccc3[nH]ccc23)CC1` ?
> 5.52

What do you get for `CCc1cccc(OC)c1C1(C(=O)NS(=O)(=O)c2cccc3nc(C)ccc23)CC1` ?
> 5.52
